Data provenance is patent US20250313546A1.

# Lookup of reported % Normalised Fluorescence with polyAU RNA keyed by entry
- Test system: PolyAU double stranded RNA
- MEASUREMENT_DESCRIPTION: Fluorescence intercalator displacement (FID) assay, SYBR-safe probe
- DETAILS: 20 μM compound, 30° C., lower % = stronger binding
Lab book: enter the figure in %, no units written.

Example results:
[[record]]
smiles_entry = "CN(C)c1ccc(/C=C/c2ccc(C(=O)Nc3c[nH]c(C(=O)Nc4c[nH]c(C(=O)NCCN5CCOCC5)c4)c3)cn2)cc1"
unit_spec = "%"
numeric_readout = 44

[[record]]
smiles_entry = "[H]/N=C(\\CCNC(=O)c1cc(NC(=O)c2cc(NC(=O)c3ccc(C=Cc4ccc(C#N)cc4)cc3)cn2C)cn1C)NCC"
unit_spec = "%"
numeric_readout = 27

[[record]]
smiles_entry = "CC/N=C(\\N)CCNC(=O)c1cc(NC(=O)c2cc(NC(=O)c3ccc(/C=C/c4ccc5nonc5c4)cc3)cn2C)cn1C"
unit_spec = "%"
numeric_readout = 2

[[record]]
smiles_entry = "[H]/N=C(\\CCNC(=O)c1cc(NC(=O)c2cc(NC(=O)c3ccc(C=Cc4ccc(N(C)C)cc4)nc3)cn2C)cn1C)NCCCCCCCCC"
unit_spec = "%"
numeric_readout = 23

[[record]]
smiles_entry = "COc1ccc(/C=C/c2ccc(C(=O)Nc3cc(C(=O)Nc4cc(C(=O)NCCC(=N)NC(C)C)n(C)c4)n(C)c3)cc2)cc1"
unit_spec = "%"
numeric_readout = 9


Record "[H]/N=C(\CCNC(=O)c1cc(NC(=O)c2cc(NC(=O)c3ccc(C=Cc4ccc5nonc5c4)cc3)cn2C)cn1C)NCCc1ccccc1" , field % Normalised Fluorescence with polyAU RNA: 42

Record "Cn1cc(NC(=O)c2cc(NC(=O)c3ccc(/C=C/c4cnc5ccccc5c4)cc3)c[nH]2)cc1C(=O)NCCC(=N)N" , field % Normalised Fluorescence with polyAU RNA: 3

Record "Cn1cc(NC(=O)c2cc(NC(=O)c3ccc(/C=C/c4cnc5ccccc5c4)cc3)cn2C)cc1C(=O)NCCCCN1CCCCC1" , field % Normalised Fluorescence with polyAU RNA: 68

Record "Cn1cc(NC(=O)c2ccc(/C=C/c3cnc4ccccc4c3)cc2)cc1C(=O)Nc1c[nH]c(C(=O)NCCN2CCOCC2)c1" , field % Normalised Fluorescence with polyAU RNA: 86

---

- System: Genomic double stranded DNA (salmon)
- MEASUREMENT_DESCRIPTION: Fluorescence intercalator displacement (FID) assay, SYBR-safe probe
- DETAILS: 20 μM compound, 30° C., lower % = stronger binding
# Lookup of reported % Normalised Fluorescence with gDNA keyed by entry
Lab book: enter the figure in %, no units written.

Example results:
[[record]]
smiles_entry = "CCCCNC(=N)CCNC(=O)c1cc(NC(=O)c2cc(NC(=O)c3ccc(/C=C/c4cnc5ccccc5c4)cc3)cn2C)cn1C"
subject_of_test = "Genomic double stranded DNA (salmon)"
numeric_readout = 7

[[record]]
smiles_entry = "[H]/N=C(\\CCNC(=O)c1cc(NC(=O)c2cc(NC(=O)c3ccc(C=Cc4ccc5nonc5c4)cc3)cn2C)cn1C)NCCOCCOCCOC"
subject_of_test = "Genomic double stranded DNA (salmon)"
numeric_readout = 32

[[record]]
smiles_entry = "CC/N=C(\\N)CCNC(=O)c1cc(NC(=O)c2cc(NC(=O)c3ccc(/C=C/c4ccc5nonc5c4)cc3)cn2C)cn1C"
subject_of_test = "Genomic double stranded DNA (salmon)"
numeric_readout = 2

[[record]]
smiles_entry = "CN(C)c1ccc(/C=C/c2ccc(C(=O)Nc3c[nH]c(C(=O)Nc4cc(C(=O)NCCC(=N)N)n(C)c4)c3)cn2)cc1"
subject_of_test = "Genomic double stranded DNA (salmon)"
numeric_readout = 11

[[record]]
smiles_entry = "CCCCCCC[N+](C)(C)CCNC(=O)c1cc(NC(=O)c2cc(NC(=O)c3ccc(/C=C/c4cnc5ccccc5c4)cc3)cn2C)cn1C"
subject_of_test = "Genomic double stranded DNA (salmon)"
numeric_readout = 50


Record "[H]/N=C(\CCNC(=O)c1cc(NC(=O)c2cc(NC(=O)c3ccc(C=Cc4ccc(N(C)C)cc4)nc3)cn2C)cn1C)NCC" , field % Normalised Fluorescence with gDNA: 13

Record "Cn1cc(NC(=O)c2cc(NC(=O)c3ccc(/C=C/c4cnc5ccccc5c4)cc3)c[nH]2)cc1C(=O)NCCN1CCOCC1" , field % Normalised Fluorescence with gDNA: 37

Record "Cn1cc(NC(=O)c2cc(NC(=O)c3ccc(/C=C/c4ccc5nonc5c4)cc3)c[nH]2)cc1C(=O)NCCC(=N)N" , field % Normalised Fluorescence with gDNA: 17

Record "CNC(=O)c1cc(NC(=O)c2cc(NC(=O)c3ccc(/C=C/c4cnc5ccccc5c4)cc3)cn2C)cn1C" , field % Normalised Fluorescence with gDNA: 29

Record "CCCCCCCCCNC(=N)CCNC(=O)c1cc(NC(=O)c2cc(NC(=O)c3ccc(/C=C/c4cnc5ccccc5c4)cc3)cn2C)cn1C" , field % Normalised Fluorescence with gDNA: 11

Record "CC(C)/N=C(\N)CCNC(=O)c1cc(NC(=O)c2cc(NC(=O)c3ccc(/C=C/c4ccc5nonc5c4)cc3)cn2C)cn1C" , field % Normalised Fluorescence with gDNA: 2

Record "CNC(=N)CCNC(=O)c1cc(NC(=O)c2cc(NC(=O)c3ccc(/C=C/c4cnc5ccccc5c4)cc3)cn2C)cn1C" , field % Normalised Fluorescence with gDNA: 13

Record "Cn1cc(NC(=O)c2cc(NC(=O)c3ccc(/C=C/c4cnc5ccccc5c4)cc3)cn2C)cc1C(=O)NCCC(=N)N1CCCCC1" , field % Normalised Fluorescence with gDNA: 23

Record "C/N=C(/CCNC(=O)c1cc(NC(=O)c2cc(NC(=O)c3ccc(/C=C/c4ccc(C(F)(F)F)cc4)cc3)cn2C)cn1C)NC" , field % Normalised Fluorescence with gDNA: 21

---

- System: C. krusei
- MEASUREMENT_DESCRIPTION: Expanded set of yeasts, MIC broth microdilution (CLSI)
- Format: cell-based
- DETAILS: Pichia kudriavzevii, ATCC6258; isolate ATCC 6258; MIC at 50% inhibition
OBSERVABLE: MIC50

Example results:
[[record]]
smiles_entry = "[H]/N=C(\\CCNC(=O)c1cc(NC(=O)c2cc(NC(=O)c3ccc(C=Cc4ccc(N(C)C)cc4)nc3)cn2C)cn1C)NC"
result = "1 to 8 µg/mL"

[[record]]
smiles_entry = "C/N=C(\\CCNC(=O)c1cc(NC(=O)c2cc(NC(=O)c3ccc(/C=C/c4ccc(N(C)C)cc4)nc3)cn2C)cn1C)NC"
result = "1 to 8 µg/mL"

[[record]]
smiles_entry = "CNC(=N)CCNC(=O)c1cc(NC(=O)c2cc(NC(=O)c3ccc(/C=C/c4cnc5ccccc5c4)cc3)cn2C)cn1C"
result = "≤ 1 µg/mL"


Record "C/N=C(/CCNC(=O)c1cc(NC(=O)c2cc(NC(=O)c3ccc(/C=C/c4cnc5ccccc5c4)cc3)cn2C)cn1C)NC" , field MIC50: ≤ 1 µg/mL

---

- Tested on: Candida glabrata (ACPF3309)
- DETAILS: Nakaseomyces glabratus, read-out: MIC99 Candida glabrata
OBSERVABLE: MIC99

Example results:
[[record]]
smiles_entry = "Cn1cc(NC(=O)c2cc(NC(=O)c3ccc(/C=C/c4cnc5ccccc5c4)cc3)cn2C)cc1C(=O)NCCC(=N)N1CCCCC1"
observable = "MIC99"
result = "< 5 µg/mL"

[[record]]
smiles_entry = "CCCCCCCCCCC[N+](C)(C)CCNC(=O)c1cc(NC(=O)c2cc(NC(=O)c3ccc(/C=C/c4cnc5ccccc5c4)cc3)cn2C)cn1C"
observable = "MIC99"
result = "25 to 50 µg/mL"

[[record]]
smiles_entry = "COc1ccc(/C=C/c2ccc(C(=O)Nc3cc(C(=O)Nc4cc(C(=O)NCCC(=N)NC(C)C)n(C)c4)n(C)c3)cn2)cc1"
observable = "MIC99"
result = "5 to 25 µg/mL"


Record "CCCCCCC/N=C(/CCNC(=O)c1cc(NC(=O)c2cc(NC(=O)c3ccc(/C=C/c4cnc5ccccc5c4)cc3)cn2C)cn1C)NCCCCCCC" , field MIC99: > 50 µg/mL

Record "CN(C)c1ccc(/C=C/c2ccc(C(=O)Nc3cc(C(=O)Nc4c[nH]c(C(=O)NCCC(=N)N)c4)n(C)c3)cn2)cc1" , field MIC99: < 5 µg/mL

Record "CC/N=C(\N)CCNC(=O)c1cc(NC(=O)c2cc(NC(=O)c3ccc(/C=C/c4ccc5nonc5c4)cc3)cn2C)cn1C" , field MIC99: 5 to 25 µg/mL

Record "CN(C)c1ccc(/C=C/c2ccc(C(=O)Nc3c[nH]c(C(=O)Nc4c[nH]c(C(=O)NCCC(=N)N)c4)c3)cn2)cc1" , field MIC99: < 5 µg/mL

Record "[H]/N=C(\CCNC(=O)c1cc(NC(=O)c2cc(NC(=O)c3ccc(C=Cc4ccc5nonc5c4)cc3)cn2C)cn1C)N1CCOCC1" , field MIC99: 25 to 50 µg/mL

Record "CCCC[N+](C)(C)CCNC(=O)c1cc(NC(=O)c2cc(NC(=O)c3ccc(/C=C/c4cnc5ccccc5c4)cc3)cn2C)cn1C" , field MIC99: 5 to 25 µg/mL

Record "Cn1cc(NC(=O)c2ccc(/C=C/c3cnc4ccccc4c3)cc2)cc1C(=O)Nc1c[nH]c(C(=O)NCCC(=N)N)c1" , field MIC99: < 5 µg/mL

Record "CC(C)=CCC/C(C)=C/CNC(=O)c1cc(NC(=O)c2cc(NC(=O)c3ccc(/C=C/c4cnc5ccccc5c4)cc3)cn2C)cn1C" , field MIC99: 5 to 25 µg/mL

Record "CN(C)c1ccc(/C=C/c2ccc(C(=O)Nc3cc(C(=O)Nc4c[nH]c(C(=O)NCCN5CCOCC5)c4)n(C)c3)cn2)cc1" , field MIC99: > 50 µg/mL

Record "CCCCCCCC[N+](C)(C)CCNC(=O)c1cc(NC(=O)c2cc(NC(=O)c3ccc(/C=C/c4cnc5ccccc5c4)cc3)cn2C)cn1C" , field MIC99: 5 to 25 µg/mL

Record "Cn1cc(NC(=O)c2cc(NC(=O)c3ccc(/C=C/c4cnc5ccccc5c4)cc3)cn2C)cc1C(=O)NCCC(=N)N1CCSCC1" , field MIC99: 5 to 25 µg/mL

Record "CCCCNC(=N)CCNC(=O)c1cc(NC(=O)c2cc(NC(=O)c3ccc(/C=C/c4cnc5ccccc5c4)cc3)cn2C)cn1C" , field MIC99: 5 to 25 µg/mL

Record "[H]/N=C(\CCNC(=O)c1cc(NC(=O)c2cc(NC(=O)c3ccc(C=Cc4ccc5nonc5c4)cc3)cn2C)cn1C)N1CCN(C)CC1" , field MIC99: 25 to 50 µg/mL

Record "CCCCCC[N+](C)(C)CCNC(=O)c1cc(NC(=O)c2cc(NC(=O)c3ccc(/C=C/c4cnc5ccccc5c4)cc3)cn2C)cn1C" , field MIC99: 5 to 25 µg/mL

Record "CN(C)c1ccc(/C=C/c2ccc(C(=O)Nc3c[nH]c(C(=O)Nc4cc(C(=O)NCCC(=N)N)n(C)c4)c3)cn2)cc1" , field MIC99: 5 to 25 µg/mL

Record "CCNC(=N)CCNC(=O)c1cc(NC(=O)c2cc(NC(=O)c3ccc(/C=C/c4cccc(OC)c4)cc3)cn2C)cn1C" , field MIC99: 5 to 25 µg/mL

Record "Cn1cc(NC(=O)c2ccc(/C=C/c3cnc4ccccc4c3)cc2)cc1C(=O)Nc1c[nH]c(C(=O)NCCN2CCOCC2)c1" , field MIC99: > 50 µg/mL

Record "[H]/N=C(\CCNC(=O)c1cc(NC(=O)c2cc(NC(=O)c3ccc(C=Cc4ccc(C#N)cc4)cc3)cn2C)cn1C)NCC" , field MIC99: 25 to 50 µg/mL

Record "CCCCCCCCCCCCCCCC[N+](C)(C)CCNC(=O)c1cc(NC(=O)c2cc(NC(=O)c3ccc(/C=C/c4cnc5ccccc5c4)cc3)cn2C)cn1C" , field MIC99: > 50 µg/mL

Record "CCC[N+](C)(C)CCNC(=O)c1cc(NC(=O)c2cc(NC(=O)c3ccc(/C=C/c4cnc5ccccc5c4)cc3)cn2C)cn1C" , field MIC99: < 5 µg/mL

Record "CCNC(=N)CCNC(=O)c1cc(NC(=O)c2cc(NC(=O)c3ccc(/C=C/c4ccc(OC)cc4)nc3)cn2C)cn1C" , field MIC99: 5 to 25 µg/mL

Record "[H]/N=C(\CCNC(=O)c1cc(NC(=O)c2cc(NC(=O)c3ccc(C=Cc4ccc(C#N)cc4)cc3)cn2C)cn1C)NC(C)C" , field MIC99: 25 to 50 µg/mL

Record "CCCCCNC(=N)CCNC(=O)c1cc(NC(=O)c2cc(NC(=O)c3ccc(/C=C/c4cnc5ccccc5c4)cc3)cn2C)cn1C" , field MIC99: 5 to 25 µg/mL

Record "C/N=C(/CCNC(=O)c1cc(NC(=O)c2cc(NC(=O)c3ccc(/C=C/c4nc5ccccc5s4)cc3)cn2C)cn1C)NC" , field MIC99: < 5 µg/mL
